- target_entity: GSK3A (Homo sapiens)
- Sequence (P49840 whole entry): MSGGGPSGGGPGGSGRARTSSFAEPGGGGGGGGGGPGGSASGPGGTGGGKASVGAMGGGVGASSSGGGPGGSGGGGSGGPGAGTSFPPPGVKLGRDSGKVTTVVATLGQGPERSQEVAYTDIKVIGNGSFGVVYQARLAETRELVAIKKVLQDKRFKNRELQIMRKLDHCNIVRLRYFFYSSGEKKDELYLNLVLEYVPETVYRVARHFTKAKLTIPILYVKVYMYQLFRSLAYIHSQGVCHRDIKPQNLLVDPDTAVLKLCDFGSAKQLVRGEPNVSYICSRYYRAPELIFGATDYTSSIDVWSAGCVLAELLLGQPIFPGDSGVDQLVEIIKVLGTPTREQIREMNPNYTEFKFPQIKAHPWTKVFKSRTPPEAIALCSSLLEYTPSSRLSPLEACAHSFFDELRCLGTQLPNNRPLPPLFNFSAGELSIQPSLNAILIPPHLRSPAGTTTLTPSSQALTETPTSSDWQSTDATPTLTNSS
- assay_summary: NanoBRET cellular target engagement assay, Nanoluc-GSK3A in HEK293 cells
- condition: NanoBRET GSK3α IC50, HEK293 cells, tracer K-8, 2 hours, 37° C
- Experimental: In the assay, HEK293 cells stably expressing either Nanoluc-GSK3A or Nanoluc-GSK3B were maintained in culture media and seeded, using a multidrop dispenser, at a density of 5×10^3 cells per well in 384-well white plates with 100 ng/ml doxycycline (Sigma) overnight. Compound was first diluted in DMSO to generate a 9-point serial dilution then diluted to 10× final concentration in Opti-MEM™ (Gibco). […]
pIC50: −log10 of the molar value.
measured_endpoint: pIC50

| molecule | val |
| --- | --- |
| C[C@@H](N)c1cncc(NC(=O)c2c(N)ncn(-c3c(Cl)cc(OC4CC4)cc3Cl)c2=O)c1 (single isomer, unassigned) [Example 51] | 8.66 |
| COc1cc(Cl)c(-n2cnc(N)c(C(=O)Nc3cncc([C@]4(N)CCCOC4)c3)c2=O)c(Cl)c1 (single isomer, unassigned) [Example 188] | 8.41 |
| CNC(C)c1cncc(NC(=O)c2c(N)ncn(-c3c(Cl)cc(OC)cc3Cl)c2=O)c1 (single isomer, unassigned) [Example 19] | 8.46 |

P = COc1cc(Cl)c(-n2cnc(N)c(C(=O)Nc3cncc([C@@H]4NC[C@H]5CCC[C@H]54)c3)c2=O)c(Cl)c1 (single isomer, unassigned) [Example 32]
Q = Nc1ncn(-c2c(Cl)cc(C(F)(F)F)cc2Cl)c(=O)c1C(=O)Nc1cncc(CNCCO)c1 [Example 23]
R = C#CCC(N)c1cncc(NC(=O)c2c(N)ncn(-c3c(Cl)cc(OCC)cc3Cl)c2=O)c1 (single isomer, unassigned) [Example 150]
Place the items in sequence of falling pIC50. Give me the labels in the order the question wants.
R, P, Q

----------
- target_entity: UniProt:P49840
- assay_summary: NanoBRET cellular target engagement assay, Nanoluc-GSK3A in HEK293 cells
- condition: NanoBRET GSK3α IC50, HEK293 cells, tracer K-8, 2 hours, 37° C
measured_endpoint: IC50 (nM)

| molecule | quantity_unit | IC50 |
| --- | --- | --- |
| CCC(N)c1cncc(NC(=O)c2c(N)ncn(-c3c(C)cc(C(F)F)cc3C)c2=O)c1 (single isomer, unassigned) | nM | 7.7 |

a = CNCCc1c(NC(=O)c2c(N)ncn(-c3c(C)cccc3Cl)c2=O)cccc1OC
b = NCc1cncc(NC(=O)c2c(N)ncn(-c3c(Cl)cc(OC4CC4)cc3Cl)c2=O)c1
In the pair a and b , the larger recorded IC50 belongs to which? Indicate your choice by writing its label.
a
(a: 9.7 nM, b: 2.5 nM)

A = CCC(N)c1cncc(NC(=O)c2c(N)ncn(-c3c(C)cc(C(F)(F)F)cc3C)c2=O)c1 (single isomer, unassigned)
B = Cc1cc(C(F)CF)cc(C)c1-n1cnc(N)c(C(=O)Nc2cncc([C@H]3CCCCN3)c2)c1=O (single isomer, unassigned) [Example 113]
Could you tell me which of A and B has the lower IC50 reading? Indicate your choice by writing its label.
B

a = CCCOc1cc(C)c(-n2cnc(N)c(C(=O)Nc3cncc(CNC)c3)c2=O)c(C)c1
b = CCC(N)c1cncc(NC(=O)c2c(N)ncn(-c3c(Cl)cncc3Cl)c2=O)c1 (single isomer, unassigned)
Could you tell me which of a and b has the lower IC50 reading? Indicate your choice by writing its label.
b

1 = CCNCc1cncc(NC(=O)c2c(N)ncn(-c3c(Cl)cc(-c4cnco4)cc3Cl)c2=O)c1
2 = COCc1cc(C)c(-n2cnc(N)c(C(=O)Nc3cncc(C4CNC(=O)CN4)c3)c2=O)c(C)c1 (single isomer, unassigned) [Example 160]
In the pair 1 and 2 , the larger recorded IC50 belongs to which? Indicate your choice by writing its label.
2
